# SYSTEM TESTED: BCRP (Homo sapiens)
# Sequence (Q9UNQ0 1-655): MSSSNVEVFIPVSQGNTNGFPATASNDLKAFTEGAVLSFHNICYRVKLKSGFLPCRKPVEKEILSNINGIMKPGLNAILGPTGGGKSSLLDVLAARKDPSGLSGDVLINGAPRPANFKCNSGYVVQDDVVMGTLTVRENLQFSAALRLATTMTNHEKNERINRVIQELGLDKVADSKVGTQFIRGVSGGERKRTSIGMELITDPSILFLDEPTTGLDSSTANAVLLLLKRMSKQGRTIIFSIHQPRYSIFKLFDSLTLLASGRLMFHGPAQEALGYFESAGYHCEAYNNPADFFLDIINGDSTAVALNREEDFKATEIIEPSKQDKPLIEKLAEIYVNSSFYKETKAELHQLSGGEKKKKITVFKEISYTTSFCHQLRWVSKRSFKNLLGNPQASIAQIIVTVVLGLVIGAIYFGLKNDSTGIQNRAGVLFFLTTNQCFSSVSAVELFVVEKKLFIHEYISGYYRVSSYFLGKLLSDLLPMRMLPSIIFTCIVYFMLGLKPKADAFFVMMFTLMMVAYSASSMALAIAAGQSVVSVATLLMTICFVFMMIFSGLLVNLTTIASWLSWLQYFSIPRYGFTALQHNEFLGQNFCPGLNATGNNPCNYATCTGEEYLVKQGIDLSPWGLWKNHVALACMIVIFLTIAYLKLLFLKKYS
# ASSAY REMARKS: bidirectional transport assay across hCMEC/D3 cell monolayer with or without Ko143
# CONDITION NOTES: human, pH 7.4, with Ko143 1 μM
METRIC: Papp B→A at 2 h, 21 μM (×10⁻⁶ cm/s)
The reply should contain only the number, in ×10⁻⁶ cm/s.

Entry NC(=O)N1c2ccccc2C=Cc2ccccc21 [CBZ, carbamazepine] : reported Papp B→A at 2 h, 21 μM = ?
3.03

Just for reference, paper PMC12555108 is where these values come from.
